# ASSAYED TARGET: hGOAT (Homo sapiens)
# Sequence (Q96T53 whole entry): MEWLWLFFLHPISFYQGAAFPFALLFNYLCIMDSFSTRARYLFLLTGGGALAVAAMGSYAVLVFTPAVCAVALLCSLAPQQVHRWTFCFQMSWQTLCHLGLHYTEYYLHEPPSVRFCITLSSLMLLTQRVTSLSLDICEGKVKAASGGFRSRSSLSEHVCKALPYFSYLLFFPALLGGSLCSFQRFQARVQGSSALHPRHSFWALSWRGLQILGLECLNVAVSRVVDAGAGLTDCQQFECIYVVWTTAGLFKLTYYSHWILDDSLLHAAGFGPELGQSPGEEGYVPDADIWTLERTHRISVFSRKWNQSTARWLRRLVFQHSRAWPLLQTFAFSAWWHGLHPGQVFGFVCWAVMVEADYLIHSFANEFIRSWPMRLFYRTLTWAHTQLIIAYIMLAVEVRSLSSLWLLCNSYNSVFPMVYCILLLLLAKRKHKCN
# PROCEDURE SUMMARY: Determination of hGOAT activity in HEK293 cells after incubation with test compound (acyl-ghrelin ELISA)
# REPORTED CONDITIONS: HEK293 cells stably transfected with preproghrelin and human GOAT; octanoate-BSA 100 μM; 5 hours incubation; acyl-ghrelin in medium by ELISA; 8 compound concentrations
# Method: Determination of hGOAT Activity in HEK293 Cells after Incubation with Test Compound HEK293 cells stably transfected with two expression vectors, one coding for preproghrelin cDNA and a second for the expression of human GOATcDNA are used as a cellular model. After feeding the cells with octanoic acid for 5 hours, acyl-ghrelin is measured in cell culture medium by an ELISA procedure. Cellline: Hek293 hGOAT/PPGhrl Clone #1B8Sodium octanoate, Sigma, Cat.-No. C5038 […]
pIC50: −log10 of the molar value.
QUANTITY KIND: pIC50

Cc1nc2nonc2c(N)c1Cc1ccc(-c2c[nH]nc2C(F)(F)F)nc1 [Compound 12.10] :: 9.36

(I) Cc1nc2nonc2c(N)c1Cc1ccc(-c2cn(C)nc2C(F)(F)F)nc1 [Compound 12.7]
(II) COc1cc(Cc2c(Cl)nc3nonc3c2N)ccc1C#N [Compound 23.7]
Query string: Pick one: I or II . Which one has the lower reported pIC50? Response format: the label of the selected entry.
Result string: I
(I: 8.93, II: 9.75)

(P) Cc1nc2nonc2c(N)c1Cc1ccc(C(F)(F)F)c(C(=O)N(C)C)c1 [Compound 15.6]
(Q) Cc1nc2nonc2c(N)c1Cc1ccc(-c2c(C)noc2C)nc1 [Compound 12.6]
(R) Cc1nc2nonc2c(N)c1Cc1ccc(-n2cc(C#N)cn2)nc1 [Compound 20.1]
(S) Cc1nc2nonc2c(N)c1Cc1ccc(F)c(C#N)c1 [Compound 2.9]
Query string: Rank ascending by pIC50. Put the labels in the requested order and write them down.
Result string: R, S, P, Q
(R: 8.33, S: 8.70, P: 8.90, Q: 9.40)

(I) Cc1nc2nonc2c(N)c1Cc1ccc(C2(C(N)=O)CC2)nc1 [Compound 19.1]
(II) Cc1nc2nonc2c(N)c1Cc1ccc(C#N)c(O[C@H]2CCNC2=O)c1 [Compound 21.3]
Query string: Which value of pIC50 is smaller, the one for I or the one for II ? // caller expects the label of the chosen entry
Result string: I
(I: 8.34, II: 8.80)
